system: PPARg:RXRa 90nM:30nM, anti-RXR (NR concentration 90 nM, RXRa partner concentration 30 nM); assay: PBM binding z-score (relative to random genomic background probes); higher = stronger binding; sequences stand for … in GC…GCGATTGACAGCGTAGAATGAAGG
Below, each of the sequences is paired with its reported PBM binding z-score value.

{"columns": ["Query sequence", "PBM binding z-score"],
 "data": [
  ["ATATGTAGGTTACATCCGGGTCAATCAGGCTATG", 4.47],
  ["ACTTACGCGTCAACGAGGTTATAGCACGCGTATA", 0.253],
  ["GCTTACGGGTCAAAGGTGATAGCATGAATAGAAT", 9.26],
  ["GCTGCTACGTCAGGTTGGTCAGCTAACGGGTACG", -0.888],
  ["TCATATAGGTAATACACGTGAAAGTCGGCATCTA", 2.92],
  ["GCTCCGAGGACAAGGTCAGAGCTTTGTCCGTAGA", 0.299],
  ["CCTACTGGGCCACGAAATGTCATTGATTCAGTGA", 0.475],
  ["CATACAGGGCCAGCTAGGCCAGAGTAGGGACGGC", -1],
  ["GATACCGGGTCAAGGCCAGAGTACGCGTATTGAT", 3.21],
  ["TGAATGAGGTCATAAGATCAGGGAACGTTGCAAA", 6.04],
  ["ATATGTCGGTTACATCCGGGTCATTCAGGCTATG", 1.09],
  ["ACTCCGAGGACAAAGGTCAGAGCTACGCCAGTGA", 8.09],
  ["TCATATAGGTCAAGGTGAAAGTCGAACGATATGA", 7.63],
  ["GCAGATAGGTAATACAAGGTGAAAGTCCGATTGT", 0.421],
  ["TCTCGGAGGACACGAAGGTCACAGCTTTCCAGAG", 2.74],
  ["CCTTACGGGTCACGCCAGGTTATAGCATCGGAGT", 4.76],
  ["GCGACTGGGGCTTCAGCAGGTTACCATAACTTAA", -0.762],
  ["TCTGCTAGGTGAGTTGGTCAGCTAACGAGCTGCC", 0.748],
  ["AGAACGAGGGCACGCTGGGTTGATAGCAGAGTAG", 1.15],
  ["GCGACTGGGGCAAAGCAGGTTACCAAAAGGTTGG", 0.774],
  ["ACTCTGAGGACAAAGGTCAGAGCTACGCCAGTGA", 6.74],
  ["TCGAGTAGGTTGGTCGGGGCATTCAGCCAACATA", 0.513],
  ["ATATGTAGGTTATCGGGTCGTTCAGTTTGCGCAT", 4.25],
  ["GGAACGTGGGCATTCGAGTTGATAGCATGGCGAT", -0.858],
  ["TCTGCTTGGTCAGTTGGTCAGCTAACGAGCTGCC", 0.933],
  ["ACTAGCAGGCCAAGTTTGGGTCACACAAACAAAG", 0.0156]
]}

---

Below, each of the sequences is paired with its reported PBM binding z-score value.
tested on: PPARg:RXRa 90nM:30nM, anti-RXR (NR concentration 90 nM, RXRa partner concentration 30 nM); assay: PBM binding z-score (relative to random genomic background probes); higher = stronger binding; sequences stand for … in GC…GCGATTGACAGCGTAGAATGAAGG

{"columns": ["Query sequence", "PBM binding z-score"],
 "data": [
  ["CCTACTGGGCCAAAAAGGGCATTGATGCCGATAA", 0.651],
  ["CGTCCGAGGTCAGCAGGTCAGTGAAAGCGACGTG", 4.16],
  ["ACTATTAGTTAACTTAGGGCAACCGATACGACGC", 0.282],
  ["ACAGACAGGTGAGTGAAGGTAAATCAGCTGGACG", -0.384],
  ["CCTGACGGGTCAAGGTTATAGCACGGGTGGTACG", 1.61],
  ["CCAGACAGGTGTGAAGGTAACTCAGCCTCGATTA", -0.443],
  ["CCTACTGGCCCAAAAAGGTCATTGATGCCGATAA", 1.93],
  ["CCTACGGGGCCATTCAGAGGTCATTGATCATATG", 1.32],
  ["GCAGTCAGGTGAAACGCAGGTAACTCAGGGTGGC", 0.166],
  ["TTACCAAGGTGAGCTGTGGTCGTTGATCCAACTC", 0.106],
  ["TGTCAAAGTTCAAGGGTAACGTAAGTATCCACAC", 7.05],
  ["TAGCCTAGGTCATTAAGGGGCCAGTATAGAAAGC", 1.11]
]}
